assay-method-text: Caspase-3/7 induction in CHO-K1 cells by small molecules, qHTS cell viability counter screen (AID 1346979); also: nearly all actives have a fitted effect of over 35% in size
test-context: CellTiter-Fluor fluorescence, 17 h; series mostly up to 92.4 µM
Results filed as inconclusive are left out. Activity calls are given as the source filed them. Calls follow the shape of the dose curve; as a rule, active = well fitted cell-killing curve with a large enough effect in the repeat runs; inconclusive = weak or mixed curves, or effect the other way; inactive = no such curve, though single readings can be large or run the other way.
One label from this list, please: 1 for active, -1 for inactive

Clc1cc(Cl)c(Cl)c(Cl)c1 : -1
CC(=O)CCC(C)=O : -1
O=[N+]([O-])c1ccc(F)c([N+](=O)[O-])c1 : 1
C(=NC1CCCCC1)=NC1CCCCC1 : 1
CCOS(C)(=O)=O : -1
Cc1ccc(N)cc1C : -1

# outcome recorded in this test, key = C=CC(=O)OC
-1

How about this compound: c1ccc(C2CC2)c(OCC2=NCCN2)c1
-1

###

system-name: Nuclear receptor subfamily 1 group I member 3 (Homo sapiens) (UniProt Q14994)
Sequence (Q14994 whole entry, looked up): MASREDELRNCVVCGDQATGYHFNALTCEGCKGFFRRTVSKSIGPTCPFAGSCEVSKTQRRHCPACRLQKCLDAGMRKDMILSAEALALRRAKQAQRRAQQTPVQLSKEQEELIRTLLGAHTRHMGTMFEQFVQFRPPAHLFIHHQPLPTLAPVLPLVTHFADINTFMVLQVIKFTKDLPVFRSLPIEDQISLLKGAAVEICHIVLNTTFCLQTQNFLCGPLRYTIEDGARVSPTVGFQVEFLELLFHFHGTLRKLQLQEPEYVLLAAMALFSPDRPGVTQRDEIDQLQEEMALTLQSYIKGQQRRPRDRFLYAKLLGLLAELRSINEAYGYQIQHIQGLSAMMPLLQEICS
assay-method-text: qHTS assay to identify small molecule agonists of the constitutive androstane receptor (CAR) signaling pathway (AID 1224839); also: nearly all actives have a fitted effect of over 15% in size; also: potency is read from the fitted curve at half-maximal effect;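 as to activation: HepG2 cells stably carrying human CAR and a CYP2B6 luciferase reporter; % is scaled to controls: 0 for no effect and ±100 for the full control effect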
test-context: HepG2 hCAR CYP2B6-luciferase, agonist mode, 24 h; series mostly up to 92.4 µM
Records with an inconclusive call do not appear. Activity calls are given as the source filed them. The call rests on the fitted dose curve; in most records, active means well fitted activation curve with a large enough effect in the repeat runs; inconclusive means weak or mixed curves; inactive means no such curve, though single readings can be large or run the other way.
endpoint: Potency

Some solved cases for reference:
O=S1(=O)OC(c2cc(Br)c(O)c(Br)c2)(c2cc(Br)c(O)c(Br)c2)c2ccccc21 : inactive
C=COC(C)=O : inactive
C(=NC1CCCCC1)=NC1CCCCC1 : inactive
COc1nn(CSP(=S)(OC)OC)c(=O)s1 : 54.5 µM (active)
C=CCCl : inactive

State the recorded Potency for every item in the following list.
1. CCC(Cl)CCl (stereo not drawn)
2. CC(C)N(CCC(C(N)=O)(c1ccccc1)c1ccccn1)C(C)C (stereo not drawn)
3. CNC(C)Cc1ccccc1OC (stereo not drawn)
4. COCCOCCO

1: inactive; 2: inactive; 3: inactive; 4: inactive

State the recorded Potency for every item in the following list.
1. Sc1ccccc1Cl
2. ClC=C(Cl)Cl
3. O=C(O)C1(c2ccc3c(c2)OC[C@H](Cc2ccc(-c4ccccc4)cc2)[C@H]3O)CCCC1
4. O=C=Nc1ccc(Cl)cc1

inactive
inactive
inactive
6.86 µM (active)

State the recorded Potency for every item in the following list.
1. CN1C[C@H](CNC(=O)OCc2ccccc2)C[C@@H]2c3cccc4c3c(cn4C)C[C@H]21
2. CC(=O)c1cc2c(cc1C)C(C)(C)C(C)CC2(C)C (stereo not drawn)
3. C=CCC1([C@H](C)CCC)C(=O)NC(=O)NC1=O
4. C=CC(=O)OCC(C)C
5. O=C(NC(=O)c1c(F)cccc1F)Nc1cc(Cl)c(Oc2ncc(C(F)(F)F)cc2Cl)c(Cl)c1
6. CCOc1nc(F)cc2nc(S(=O)(=O)Nc3c(Cl)cccc3Cl)nn12

["inactive", "24.3 µM (active)", "inactive", "inactive", "inactive", "inactive"]

State the recorded Potency for every item in the following list.
1. OCCCBr
2. CCCCc1c(C)nc(NCC)nc1OS(=O)(=O)N(C)C
3. ClP(Cl)(Cl)(Cl)Cl
4. Brc1ccccc1
5. CN(C)c1ccc(N(C)C)cc1
6. CC/C(=N\OC/C=C/Cl)C1=C(O)CC(C2CCOCC2)CC1=O (stereo not drawn)
7. CC1Sc2c(C(=O)O)c(=O)c3cc(F)c(N4CCNCC4)cc3n21 (stereo not drawn)

["inactive", "21.7 µM (active)", "inactive", "inactive", "61.3 µM (active)", "inactive", "inactive"]

State the recorded Potency for every item in the following list.
1. IC(I)=C(I)I
2. O=C(N[C@H](c1ccccc1)[C@@H]1CN2CCC1CC2)c1c(Cl)ccc(C(F)(F)F)c1Cl

1. inactive
2. inactive

###

assay-method-text: qHTS assay to identify small molecule antagonists of the vitamin D receptor (VDR) signaling pathway - cell viability counter screen (AID 743225); also: % is scaled to controls: 0 for no effect and ±100 for the full control effect; nearly all actives have a fitted effect of over 50% in size
test-context: VDR-bla HEK293T viability, CellTiter-Glo luminescence, 16 h; series mostly up to 61 µM
Records with an inconclusive call do not appear. Active and inactive are the calls of the source. Calls follow the shape of the dose curve; as a rule, active = well fitted cell-killing curve with a large enough effect in the repeat runs; inconclusive = weak or mixed curves, or effect the other way; inactive = no such curve, though single readings can be large or run the other way.
One label from this list, please: TRUE = active, FALSE = inactive

Below are worked cases with known answers.
BrCCCCBr : FALSE
CN1C(=O)C(O)N=C(c2ccccc2)c2cc(Cl)ccc21 (configuration not stated) : FALSE
O=C(O)CC(Cl)C(=O)O (configuration not stated) : FALSE
O=S1OC[C@@H]2[C@H](CO1)[C@]1(Cl)C(Cl)=C(Cl)[C@@]2(Cl)C1(Cl)Cl (some centres not stated) : FALSE

# outcome recorded in this test, key = Cc1ccc2ccccc2c1
FALSE

How about this molecule: C=C(C#N)CCC#N
FALSE

How about this molecule: Sc1ccccc1Cl
FALSE

How about this molecule: Cc1ccc(-c2c(Cl)nc(C#N)n2S(=O)(=O)N(C)C)cc1
FALSE

How about this molecule: C=CC(=O)OCC(C)C
FALSE

How about this molecule: CC(C)(C)C(O)C(Oc1ccc(Cl)cc1)n1cncn1 (configuration not stated)
FALSE

How about this molecule: CCOP(=O)(OCC)SCCSCC
FALSE

How about this molecule: CC(=O)c1cc2c(cc1C)C(C)(C)C(C)CC2(C)C (configuration not stated)
FALSE

###

system-name: Cytochrome P450 2C9 (Homo sapiens) (UniProt P11712)
Sequence (P11712 whole entry, looked up): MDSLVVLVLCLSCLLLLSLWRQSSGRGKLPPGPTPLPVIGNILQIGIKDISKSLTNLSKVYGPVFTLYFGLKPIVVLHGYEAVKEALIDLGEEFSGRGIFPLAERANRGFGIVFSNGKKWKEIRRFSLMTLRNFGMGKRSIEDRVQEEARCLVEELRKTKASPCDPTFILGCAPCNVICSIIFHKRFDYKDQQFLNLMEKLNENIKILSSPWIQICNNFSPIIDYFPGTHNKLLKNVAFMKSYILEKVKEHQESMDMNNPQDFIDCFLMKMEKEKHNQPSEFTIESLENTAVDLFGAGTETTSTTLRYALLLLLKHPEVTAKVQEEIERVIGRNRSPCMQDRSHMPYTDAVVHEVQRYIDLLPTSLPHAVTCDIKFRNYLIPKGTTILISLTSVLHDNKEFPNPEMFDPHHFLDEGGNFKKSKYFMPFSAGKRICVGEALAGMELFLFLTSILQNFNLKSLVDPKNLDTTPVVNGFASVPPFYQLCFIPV
assay-method-text: Cytochrome P450 Family 2 Subfamily C Member 9 (CYP2C9) small molecule antagonists: luciferase reporter qHTS assay (AID 1671198); also: nearly all actives have a fitted effect of over 50% in size
test-context: P450-Glo CYP2C9 enzyme assay, luciferin luminescence; series mostly up to 115 µM
Inconclusive results are not listed. The source made the active and inactive calls. Calls follow the shape of the dose curve; as a rule, active = well fitted inhibition curve with a large enough effect in the repeat runs; inconclusive = weak or mixed curves; inactive = no such curve, though single readings can be large or run the other way.
One label from this list, please: active, inactive

c1ccc(CN2CCNCC2)cc1 : inactive
C=COC(C)=O : inactive
Nc1nc(N)nc(N)n1 : inactive
COc1cc(Cl)c(OC)cc1Cl : active
N#CCC#N : active

# outcome recorded in this test, key = CCOc1nc(F)cc2nc(S(=O)(=O)Nc3c(Cl)cccc3Cl)nn12
active

How about this molecule: C#CCOC(C(=O)OCCN(C)C)(c1ccccc1)c1ccccc1
active

###

assay-method-text: qHTS RealTime-Glo MT Cell Viability Assay in HEK293 cells - 40 hour (AID 1224874); also: potency is read from the fitted curve at half-maximal effect; nearly all actives have a fitted effect of over 50% in size
test-context: RealTime-Glo luminescence
Inconclusive results are not listed. Active and inactive are the calls of the source. Calls come from the whole dose curve; as a rule, active = well fitted cell-killing curve with a large enough effect in the repeat runs; inconclusive = weak or mixed curves, or effect the other way; inactive = flat fitted curve, though single readings scatter.
endpoint: Potency

O=C(Nc1ccccc1)Nc1cnns1 : 27.5 µM (active)

State the recorded Potency for every item in the following list.
1. CC1CC(CC2CCC(N)C(C)C2)CCC1N (stereo not given)
2. CCCC(Cn1cncn1)c1ccc(Cl)cc1Cl (stereo not given)
3. CO/C=C(/C(=O)OC)c1ccccc1COc1cccc(C(F)(F)F)n1
4. COc1ccc(-c2ccccc2)cc1NNC(=O)OC(C)C
5. CS/C(C)=N/OC(=O)N(C)SN(C)C(=O)O/N=C(\C)SC
6. CN1C[C@H](CNC(=O)OCc2ccccc2)C[C@@H]2c3cccc4c3c(cn4C)C[C@H]21
7. S=C=NCc1ccccc1
8. CCCCc1c(C)nc(NCC)nc1OS(=O)(=O)N(C)C

55.8 µM (active)
21.9 µM (active)
6.16 µM (active)
51 µM (active)
43.6 µM (active)
23.9 µM (active)
44.1 µM (active)
13.8 µM (active)

State the recorded Potency for every item in the following list.
1. IC(I)=C(I)I
2. C/C(=C\c1ccccc1)[N+](=O)[O-]
3. O=C(Nc1ccccc1)Nc1ccnc(Cl)c1
4. CC(C)(C)C(O)C(Oc1ccc(Cl)cc1)n1cncn1 (stereo not given)
5. CC1(C)CCC(Cc2ccc(Cl)cc2)C1(O)Cn1cncn1 (stereo not given)
6. CCOP(=O)(OCC)O/C(=C/Cl)c1ccc(Cl)cc1Cl

6.16 µM (active)
11 µM (active)
19.5 µM (active)
11 µM (active)
24.5 µM (active)
19.5 µM (active)

###

assay-method-text: qHTS assay for small molecule activators of the heat shock response signaling pathway (AID 743210);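 also: HeLa cells with beta-lactamase reporter driven by heat shock elements; % is scaled to controls: 0 for no effect and ±100 for the full control effect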
test-context: HeLa HSE-bla reporter, beta-lactamase ratio, 5 h; series mostly up to 62.6 µM
Results filed as inconclusive are left out. Active and inactive are the calls of the source. Calls come from the whole dose curve; as a rule, active = well fitted activation curve with a large enough effect in the signal ratio in the repeat runs, with a control signal flat (not every such curve was filed as active); inconclusive = weak or mixed curves; inactive = flat fitted curve, though single readings scatter; the % refers to the signal ratio.
endpoint: activation

Some solved cases for reference:
ClCC(Br)CBr (centres undefined) : inactive
NC(=O)CI : inactive
C[C@@H]1CC[C@H]2[C@@H](C)C(=O)O[C@@H]3O[C@@]4(C)CC[C@@H]1[C@]32OO4 : inactive
CC(=O)c1cc2c(cc1C)C(C)(C)C(C)CC2(C)C (centres undefined) : inactive
O=C(C(Cl)(Cl)Cl)C(Cl)(Cl)Cl : inactive

State the recorded activation for every item in the following list.
1. CCOP(=S)(OCC)Oc1cc(Cl)c(Br)cc1Cl
2. CNP(=O)(OC)Oc1ccc(C(C)(C)C)cc1Cl (centres undefined)
3. C=CC(=O)OC
4. NCC(CC(=O)O)c1ccc(Cl)cc1 (centres undefined)
5. Cl/C=C\C[N+]12CN3CN(CN(C3)C1)C2

["inactive", "inactive", "inactive", "-1.61% [at 0.55 µM] (inactive)", "inactive"]
